Reported AUC(0-t) at 7 h by item:
- ASSAY INFO: AUClast in Sprague-Dawley rat at 10 mg/kg, po measured up to 7 hrs by LC-MS-MS analysis
- Type: ADME, organism-based
- Parameters: route oral, dose 10 mg/kg, time <=7
- ASSAY SETUP: in vivo

Reference set (2 entries):
Cc1cc(S(=O)(=O)NC(=O)NC/C(F)=C2\CCCc3cnn(Cc4ccc(Cl)cc4Cl)c32)sc1Cl    57.8 µM·h
COc1ccc(S(=O)(=O)NC(=O)NC/C(F)=C2\CCCc3cnn(Cc4ccc(Cl)cc4Cl)c32)cc1Cl    31.9 µM·h

**Q:** Would you kindly share the measured AUC(0-t) at 7 h for O=C(NC/C=C1\CCCc2cnn(C3CCN(c4ccc(F)cc4)CC3)c21)NS(=O)(=O)c1cc(Cl)c(Cl)s1 ?
**A:** 0.73 µM·h

**Q:** Suppose we examine the compound COc1ccc(Cl)cc1S(=O)(=O)NC(=O)NC/C(F)=C1\CCCc2cnn(Cc3ccc(Cl)cc3Cl)c21 ; what AUC(0-t) at 7 h value has been reported?
**A:** 10.8 µM·h

###

Reported bioavailability values for a set of compounds
- ASSAY INFO: Oral bioavailability in Sprague-Dawley rat at 10 mg/kg measured up to 24 hrs by LC-MS-MS analysis
- Format: ADME, organism-based
- ASSAY SETUP: in vivo

A selection of reference data follows.
O=C(NC/C=C1\CCCc2cnn(Cc3ccc(Cl)cc3Cl)c21)NS(=O)(=O)c1cc(Cl)c(Cl)s1    84%
Cc1cc(S(=O)(=O)NC(=O)NC/C(F)=C2\CCCc3cnn(Cc4ccc(Cl)cc4Cl)c32)sc1Cl    55%
O=C(NS(=O)(=O)c1ccc(Cl)cc1)OC/C=C1\CCCc2cnn(Cc3ccc(Cl)cc3Cl)c21    46%
O=C(NS(=O)(=O)c1cc(Cl)c(Cl)s1)OC/C=C1\CCCc2cnn(Cc3ccc(Cl)cc3Cl)c21    24%
O=C(NC/C=C1\CCCc2cnn(Cc3ccc(Cl)cc3Cl)c21)NS(=O)(=O)c1ccc(Cl)cc1    25%

API: the following record is the query input.
**Q:** Suppose we examine the compound COc1ccc(S(=O)(=O)NC(=O)NC/C(F)=C2\CCCc3cnn(Cc4ccc(Cl)cc4Cl)c32)cc1Cl ; what bioavailability value has been reported?
**A:** 44%

###

- ASSAY INFO: Half life in Sprague-Dawley rat at 10 mg/kg, po measured up to 24 hrs by LC-MS-MS analysis
- Format: ADME, organism-based
- ASSAY SETUP: in vivo
Kindly return class 1 if reported half-life is no lower than 3 h; return class 0 if it is lower.

COc1ccc(S(=O)(=O)NC(=O)NC/C(F)=C2\CCCc3cnn(Cc4ccc(Cl)cc4Cl)c32)cc1Cl    class 0

**Q:** # check: half-life of O=C(NC/C=C1\CCCc2cnn(Cc3ccc(Cl)cc3Cl)c21)NS(=O)(=O)c1ccc(Cl)cc1 is greater than or equal to 3 h
**A:** class 0

###

- ASSAY INFO: Half life in Sprague-Dawley rat at 2 mg/kg, iv measured up to 24 hrs by LC-MS-MS analysis
- Format: ADME, organism-based
- ASSAY SETUP: in vivo
READOUT TYPE: half-life (min)
Kindly answer with a numeric value in min, unit omitted.

Look over these answered cases.
O=C(NC/C=C1\CCCc2cnn(Cc3ccc(Cl)cc3Cl)c21)NS(=O)(=O)c1ccc(Cl)cc1    114
Cc1cc(S(=O)(=O)NC(=O)NC/C(F)=C2\CCCc3cnn(Cc4ccc(Cl)cc4Cl)c32)sc1Cl    354
O=C(NS(=O)(=O)c1ccc(Cl)cc1)OC/C=C1\CCCc2cnn(Cc3ccc(Cl)cc3Cl)c21    210

**Q:** Look up half-life: O=C(NC/C=C1\CCCc2cnn(Cc3ccc(Cl)cc3Cl)c21)NS(=O)(=O)c1cc(Cl)c(Cl)s1
**A:** 47.4

**Q:** Given O=C(NS(=O)(=O)c1cc(Cl)c(Cl)s1)OC/C=C1\CCCc2cnn(Cc3ccc(Cl)cc3Cl)c21 , state its recorded half-life.
**A:** 126

**Q:** So what does the record say about half-life for COc1ccc(S(=O)(=O)NC(=O)NC/C(F)=C2\CCCc3cnn(Cc4ccc(Cl)cc4Cl)c32)cc1Cl ?
**A:** 372
